Listed next: entries and their corresponding microsomal CLint at 1 µM.
# measurement protocol: Metabolic stability in liver microsomes (intrinsic clearance)
# Format: in vitro ADME
# condition set: mouse, microsomes, pH 7.4, mouse liver microsomes; read-out: Metabolic Stability (liver microsome intrinsic clearance) Clearance (mouse, μl/min./mg protein)

{"compound": "CCc1nc2ncc(OC)cn2c1C(=O)NCc1ccc(-c2nc3n(n2)CC[C@H](C(F)(F)F)C3)cc1", "inequality symbol": "=", "microsomal CLint at 1 µM [µL/min/mg]": 12.9}
{"compound": "CCc1nc2cc(F)ccn2c1C(=O)NCc1ccc(-c2nc3n(n2)CCCC3)cc1", "inequality symbol": "=", "microsomal CLint at 1 µM [µL/min/mg]": 14.4}
{"compound": "CCc1cnc2nc(CC)c(C(=O)NCc3ccc(-c4cn5c(n4)C[C@H](C(F)(F)F)CC5)cc3)n2c1", "inequality symbol": "=", "microsomal CLint at 1 µM [µL/min/mg]": 62.5}
{"compound": "CCc1nc2nc(C)ccn2c1C(=O)NCc1ccc(-c2cn3c(n2)CC(C(F)(F)F)CC3)cc1 (stereo not shown) [Compound 34ab]", "inequality symbol": "<", "microsomal CLint at 1 µM [µL/min/mg]": 7.7}
{"compound": "CCc1nc2ncc(C)cn2c1C(=O)NCc1ccc(-c2nc3n(n2)CCC(C(F)(F)F)C3)cn1 (stereo not shown)", "inequality symbol": "<", "microsomal CLint at 1 µM [µL/min/mg]": 7.7}
{"compound": "CCc1nc2nc(C)ccn2c1C(=O)NCc1ccc(-c2nc3n(n2)CCC(C(F)(F)F)C3)cc1 (stereo not shown) [Compound 5ab]", "inequality symbol": "<", "microsomal CLint at 1 µM [µL/min/mg]": 7.7}
{"compound": "CCc1nc2ncc(C)cn2c1C(=O)NCc1ccc(-c2cn3c(n2)CC(C)CC3)cc1 (stereo not shown)", "inequality symbol": "<", "microsomal CLint at 1 µM [µL/min/mg]": 7.7}

----------
# measurement protocol: Metabolic stability in liver microsomes (intrinsic clearance)
# Type: in vitro ADME
# condition set: mouse liver microsomes
# Protocol: The test compound was incubated under the generic condition (0.5 mg/ml microsomal protein, 1 mM NADPH, 1 mM MgCl2, and 0.1 M phosphate buffer, pH 7.4, 37° C.) at a defined substrate concentration (typically 1 μM) in liver microsomes of selected species across a time course (typically 0, 5, 10, 20, 40 and 60 minutes) at Cyprotex (Cheshire, UK). The liver microsomes, buffer and test compound will be pre-incubated for 5 minutes. […]
endpoint: Metabolic Stability Half life (mouse, min.) (min)

{"compound": "CCc1nc2cc(F)ccn2c1C(=O)NCc1ccc(-c2nc3n(n2)CCC(C(F)(F)F)C3)cc1 (racemic)", "readout unit": "min", "inequality symbol": "=", "result": 67.7}
{"compound": "O=C(NCc1ccc(-c2nc3n(n2)CCC(C(F)(F)F)C3)cc1)c1c(C(F)F)nc2ccccn12 (racemic) [Compound 14ab]", "readout unit": "min", "inequality symbol": ">", "result": 180}
{"compound": "CCc1nc2nc(C)c(N(Cc3ccc(OC)cc3OC)C(=O)OC(C)(C)C)cn2c1C(=O)NCc1ccc(-c2nc3n(n2)CC[C@H](C(F)(F)F)C3)cc1", "readout unit": "min", "inequality symbol": ">", "result": 180}
{"compound": "CCc1nc2ncccn2c1C(=O)NCc1ccc(-c2nc3n(n2)CCC(C(F)(F)F)C3)cc1 (racemic) [Compound 17ab]", "readout unit": "min", "inequality symbol": ">", "result": 180}
{"compound": "CCc1nc2ncc(NC(=O)OC(C)(C)C)cn2c1C(=O)NCc1ccc(-c2nc3n(n2)CCC(C(F)(F)F)C3)cc1 (stereo not shown)", "readout unit": "min", "inequality symbol": ">", "result": 180}
{"compound": "CCc1nc2n(c1C(=O)NCc1ccc(-c3nc4n(n3)CCC(C(F)(F)F)C4)cc1)CCCC2 (racemic) [Compound 13ab]", "readout unit": "min", "inequality symbol": "=", "result": 89.4}
{"compound": "O=C(NCc1ccc(-c2cn3c(n2)CC(C(F)(F)F)CC3)cc1)c1c(C(F)(F)F)nc2ccccn12 (racemic) [Compound 18ab]", "readout unit": "min", "inequality symbol": "=", "result": 125}

Taken from patent US20250034171A1.
